Please go through the items and note down their CC50 at 96 h.
test: Cytotoxicity against human MT4 cells after 96 hrs by MTT method; assay type: cell-based

Each compound below has a reported value. Please supply its CC50 at 96 h.
1. CCCOc1ccc2ccc(=O)oc2c1CN1CCN(C/C=C/c2ccccc2)CC1
2. CC(=O)Oc1ccc2c(C)cc(=O)oc2c1Cc1c[nH]c2ccccc12
3. CC(=O)Oc1ccc2c(C)cc(=O)oc2c1Cc1c(C)[nH]c2ccccc12

1. 16 µM
2. 100 µM
3. 41 µM

###

assay: Cytotoxicity against human MT4 cells after 96 hrs by MTT method; assay type: cell-based
Readout Label: CC50 at 96 h

[[record]]
compound = "COc1ccc2c(=O)c(Cc3c(OC(C)=O)ccc4ccc(=O)oc34)c(N3CCCC3)oc2c1"
readout_value = "> 100 µM"

[[record]]
compound = "Cc1cc(=O)oc2c(CN3CCN(C)CC3)c(OC(=O)c3ccccc3)ccc12"
readout_value = "> 100 µM"


Kindly review the next compound as well.
Entry C[C@@]1(O)[C@H](O)[C@@H](CO)O[C@H]1n1cnc2c(=O)[nH]c(N)nc21 [2'-B-METHYL-GUANOSINE] ; CC50 at 96 h = > 100 µM
